assayProcedure: folding stability dG unfold from trypsin proteolysis; higher = more stable
Param threshold (2 kcal/mol) applies to folding stability dG unfold; output Fulfilled when value >= threshold, Not fulfilled when value < threshold.

As a guide, the following entries are already answered.
{"querySequence": "SAGGSAGGSAGGDSNVDNFTLMFPWGWVVKIDITYTDGGLETDWEIIEPVPPLPPDDKNKSAGGSAGGSAGG [r7_845_TrROS]", "groupLabel": "Not fulfilled"}
{"querySequence": "SMVFTLPGGIEIKVEPEEDSYRFVIELPSGERLEVPVPPENLEEFIRELIRKALEIANPNITEEEIEKLASA [r9_634_TrMRF]", "groupLabel": "Fulfilled"}
{"querySequence": "SAGEKTVKIKLPNTKTITVKVKKNEKKILYLPNGEKILITDVKKGKVSLKKGITYVKDKNGKWYPLKYKSAG [r5_417_TrMRF]", "groupLabel": "Not fulfilled"}
{"querySequence": "SAGGSAGGSKKTVLVRITVTLPNGEKREIELEVEVDSVEDLKELLKKLPLPPGMKVTIEVVPASAGGSAGGS [r20_162_TrROS_Hall]", "groupLabel": "Fulfilled"}

# input Dear colleague, could you confirm whether SAGGSAGGSEYYIYIQIDKNGKIEIVDVVPPGEPMEDMPPEQYDHTIMFPFESPEDALAEILKSAGGSAGGS [r12_452_TrROS] has folding stability dG unfold at or above 2 kcal/mol?
# output Not fulfilled

# input Dear colleague, could you confirm whether SAGGSAGGSAGGWFYKRDPDGKPLEPRPVVVIKISYEISYDADGGWKLKLNISIYPVYWISAGGSAGGSAGG [r7_572_TrROS] has folding stability dG unfold at or above 2 kcal/mol?
# output Fulfilled

# input Dear colleague, could you confirm whether SAGGSPIQTAVTTNTLGNETITTTTLVPPEAVATSVTTVYEPDPNSDNYVVKSVLTTTTSTLPPSDAASAGG [r13_568_JUSTAS] has folding stability dG unfold at or above 2 kcal/mol?
# output Not fulfilled

# input Dear colleague, could you confirm whether SAGGSAGGSAGGSNIPSDSTVTSKGSSDTTTSTYYNPETGTTLVTTTPPDGVPTTTTTASAGGSAGGSAGGS [r10_592_JUSTAS] has folding stability dG unfold at or above 2 kcal/mol?
# output Not fulfilled

# input Dear colleague, could you confirm whether SAGNWKIEIKVKHRRTPDGYYRVTARIQIWDPKNGKPLREIPIEGPFDSPEQAERRARKKAKEILKALSAGG [r19_255_TrROS] has folding stability dG unfold at or above 2 kcal/mol?
# output Fulfilled

# input Dear colleague, could you confirm whether SAGGSAGGSAGMTVTTITKTYPFDPNKSLSFTVPPGATITDKKTDADIAKGTVTVTVTVASAGGSAGGSAGG [r11_701_JUSTAS] has folding stability dG unfold at or above 2 kcal/mol?
# output Not fulfilled

# input Dear colleague, could you confirm whether SAGGSAGGSKPELVIPITFPVLVKNPLDGKIYPVKVEIHIFYYPDKPIIEITLINPDGKPFPFSAGGSAGGS [r12_283_TrMRF] has folding stability dG unfold at or above 2 kcal/mol?
# output Fulfilled

# input Dear colleague, could you confirm whether SAGGSAGGSAGMNKKGKYTVIEELVINPKTNYLFKKKVTIYPDGKIEVKSELLGPILPTESAGGSAGGSAGG [r11_226_TrMRF] has folding stability dG unfold at or above 2 kcal/mol?
# output Not fulfilled

# input Dear colleague, could you confirm whether SAGGFLENLPDEVVEAALAAVLPDGSRVFVALRKGPDRPRVLIITFDANGVPRDIRELDPEEALKALEASAG [r5_73_TrMRF] has folding stability dG unfold at or above 2 kcal/mol?
# output Fulfilled

# input Dear colleague, could you confirm whether SAEVIEKTLTETVIGDTVVTPSVVEFPDGSVVEKVTTVSPDGTVTVTTYYFPPDGVRTFLSTTTVPLDLSAG [r14_680_JUSTAS] has folding stability dG unfold at or above 2 kcal/mol?
# output Not fulfilled
